These entries and their values trace back to patent US12448369B2.

Biological target: Porcine ventricle myofibrils (ventricular myosin ATPase) (Sus scrofa)
Construct: Myofibrils from porcine cardiac muscle was isolated from the left ventricle of Yucatan minipigs; tissue Exemplar Genetics; host or cells: left ventricle of Yucatan minipigs, myofibrils prepared in house
Sequence (P79293 whole entry): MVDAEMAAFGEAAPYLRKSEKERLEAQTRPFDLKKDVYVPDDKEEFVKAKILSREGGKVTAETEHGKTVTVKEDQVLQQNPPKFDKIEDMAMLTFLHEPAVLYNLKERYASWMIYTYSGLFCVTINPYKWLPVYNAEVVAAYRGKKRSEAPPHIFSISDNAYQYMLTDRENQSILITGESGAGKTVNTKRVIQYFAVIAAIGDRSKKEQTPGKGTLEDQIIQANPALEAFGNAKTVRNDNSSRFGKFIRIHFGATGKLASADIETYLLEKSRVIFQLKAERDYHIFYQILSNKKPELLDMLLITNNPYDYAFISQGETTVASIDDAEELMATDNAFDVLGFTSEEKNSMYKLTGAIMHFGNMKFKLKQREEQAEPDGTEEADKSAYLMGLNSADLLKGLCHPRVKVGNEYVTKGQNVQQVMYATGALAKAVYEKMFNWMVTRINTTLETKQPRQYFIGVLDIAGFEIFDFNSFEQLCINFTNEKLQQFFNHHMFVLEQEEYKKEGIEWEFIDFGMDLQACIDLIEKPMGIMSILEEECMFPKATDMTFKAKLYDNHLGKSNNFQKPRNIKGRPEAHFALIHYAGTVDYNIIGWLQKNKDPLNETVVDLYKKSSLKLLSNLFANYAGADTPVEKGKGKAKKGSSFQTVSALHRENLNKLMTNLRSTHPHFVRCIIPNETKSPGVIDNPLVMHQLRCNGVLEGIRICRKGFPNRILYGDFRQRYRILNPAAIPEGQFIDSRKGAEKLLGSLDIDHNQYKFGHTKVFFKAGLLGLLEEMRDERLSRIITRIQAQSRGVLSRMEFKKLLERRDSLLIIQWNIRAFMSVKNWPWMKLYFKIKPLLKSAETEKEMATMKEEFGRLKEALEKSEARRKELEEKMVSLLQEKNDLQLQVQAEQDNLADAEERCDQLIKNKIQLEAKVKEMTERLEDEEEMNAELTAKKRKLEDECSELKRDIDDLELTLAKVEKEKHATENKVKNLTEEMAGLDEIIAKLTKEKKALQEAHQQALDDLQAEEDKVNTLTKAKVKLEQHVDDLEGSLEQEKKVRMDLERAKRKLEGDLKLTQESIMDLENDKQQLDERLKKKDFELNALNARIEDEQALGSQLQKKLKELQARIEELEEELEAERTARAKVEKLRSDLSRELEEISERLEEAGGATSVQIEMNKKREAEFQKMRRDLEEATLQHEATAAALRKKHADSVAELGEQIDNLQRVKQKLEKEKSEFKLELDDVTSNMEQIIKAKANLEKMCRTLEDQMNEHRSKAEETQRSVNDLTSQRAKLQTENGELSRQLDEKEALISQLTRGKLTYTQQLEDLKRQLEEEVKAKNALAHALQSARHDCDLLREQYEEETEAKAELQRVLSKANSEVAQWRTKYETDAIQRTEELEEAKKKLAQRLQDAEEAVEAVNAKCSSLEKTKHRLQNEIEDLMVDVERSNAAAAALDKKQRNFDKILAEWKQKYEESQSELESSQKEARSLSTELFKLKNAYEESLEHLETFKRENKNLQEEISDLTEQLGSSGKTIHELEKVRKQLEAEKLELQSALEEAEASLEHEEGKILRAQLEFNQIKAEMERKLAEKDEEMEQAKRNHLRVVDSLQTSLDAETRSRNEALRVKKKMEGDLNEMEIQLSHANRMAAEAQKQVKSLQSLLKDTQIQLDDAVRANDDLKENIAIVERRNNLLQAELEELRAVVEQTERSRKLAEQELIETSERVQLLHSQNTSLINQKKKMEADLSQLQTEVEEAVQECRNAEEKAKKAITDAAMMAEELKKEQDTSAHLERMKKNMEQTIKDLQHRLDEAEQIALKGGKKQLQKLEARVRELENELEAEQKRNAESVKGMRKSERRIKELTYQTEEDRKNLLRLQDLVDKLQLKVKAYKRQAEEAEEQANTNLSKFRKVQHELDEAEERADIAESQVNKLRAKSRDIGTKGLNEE
Assay: Myofibril ATPase assay, porcine ventricle myofibrils
Assay type: biochemical, porcine (Yucatan minipigs)
Conditions: Y75 value (no ‡ mark); porcine ventricle myofibrils
Measured Quantity: Ventricular EC25
Answer by giving the amount and then stating its unit.

Recorded Ventricular EC25, per entry:
// returns reported Ventricular EC25 for input C[C@H](NC(=O)Cc1cc2c(F)c(F)ccc2[nH]c1=O)c1ccc(C#N)cn1
260 nM

Reported Ventricular EC25 for Cc1c(CC(=O)N[C@H](C)c2ncc(C#N)cn2)c(=O)[nH]c2ccc(F)c(Cl)c12 (single isomer, unassigned) : what is it?
260 nM

Please look up its Ventricular EC25: Cc1cc(F)cnc1[C@H](C)NC(=O)C1(c2cc3c(F)c(F)ccc3[nH]c2=O)CC1 (single isomer, unassigned)
33850 nM

Entry Cc1c(CC(=O)N[C@@H](C)c2ncc(C#N)cn2)c(=O)[nH]c2ccc(F)c(F)c12 : reported Ventricular EC25 = ?
340 nM

Next:
What value of Ventricular EC25 has been recorded for this entry: Cc1nnccc1[C@@H](C)NC(=O)Cc1c(C)c2cc(F)ccc2[nH]c1=O
100000 nM

###

System: Porcine atria myofibrils (atrial myosin ATPase)
Experiment: Myofibril ATPase assay, porcine atria myofibrils
Type: biochemical
Conditions: Y75 value (no ‡ mark); porcine atria myofibrils
Measured Quantity: Atrial EC25 (µM)
Number only, in µM; omit the unit.

Look over these answered cases.
Checklist item: Atrial EC25 tested on Porcine atria myofibrils (atrial myosin ATPase), entry CCc1c(CC(=O)N[C@@H](C)c2ccc(F)cc2F)c(=O)[nH]c2ccccc12 , value?
0.06

What is its Atrial EC25 for Porcine atria myofibrils (atrial myosin ATPase)? Entry: Cc1c(C2(C(=O)N[C@H](C)c3cc(C#N)ccn3)CC2)c(=O)[nH]c2ccc(F)cc12 (single isomer, unassigned)
19.55

// lookup Atrial EC25 | system=Porcine atria myofibrils (atrial myosin ATPase) | key= Cc1c(C2(C(=O)N[C@@H](C)c3ncc(C#N)cn3)CC2)c(=O)[nH]c2cccc(C#N)c12 (single isomer, unassigned)
4.48

Record C[C@H](NC(=O)Cc1cc2cc(F)c(F)cc2[nH]c1=O)c1cnc(C#N)cn1 : what is its Atrial EC25 with Porcine atria myofibrils (atrial myosin ATPase)?
7.61

Write down the reported Atrial EC25 of Cc1c(CC(=O)N[C@H](C)c2ncc(C#N)cn2)c(=O)[nH]c2cccc(F)c12 (single isomer, unassigned) , test system: Porcine atria myofibrils (atrial myosin ATPase).
1.18

# query: Atrial EC25 | item C[C@@H](NC(=O)Cc1c(C2CC2)c2cc(F)ccc2[nH]c1=O)c1ncc(C#N)cc1F | system: Porcine atria myofibrils (atrial myosin ATPase)
100.00

Write down the reported Atrial EC25 of C[C@@H](NC(=O)C1(c2cc3cc(F)ccc3[nH]c2=O)CC1)c1nccc(C#N)n1 (single isomer, unassigned) , test system: Porcine atria myofibrils (atrial myosin ATPase).
4.10

Could you now look at the following compound, please?
Any idea what Atrial EC25 came out for Cc1c(F)ccc2[nH]c(=O)c(C(F)(F)C(=O)N[C@H](C)c3ncc(C#N)cn3)c(C#N)c12 (single isomer, unassigned) on Porcine atria myofibrils (atrial myosin ATPase)?
0.76

###

Target: Porcine ventricle myofibrils (ventricular myosin ATPase) (Sus scrofa)
Construct: Myofibrils from porcine cardiac muscle was isolated from the left ventricle of Yucatan minipigs; tissue Exemplar Genetics; host or cells: left ventricle of Yucatan minipigs, myofibrils prepared in house
Assay: Myofibril ATPase assay, porcine ventricle myofibrils
Format: biochemical, porcine (Yucatan minipigs)
Details: Y75 value (no ‡ mark); porcine ventricle myofibrils
Experimental: Example 1. Myofibril ATPase Assay Myofibril ATPase assays are known in the art to be useful in evaluating small molecules for the treatment of HCM and other cardiac indications. Myosin ATPase activity is assessed by using a coupled reaction system, in which ADP generated by the myosin ATPase function is coupled to the disappearance of NADH through the pyruvate kinase/lactate dehydrogenase (PK-LDH) system. […]
Classify on Ventricular EC25 using band A (below 0.8 µM), band B (0.8 µM to below 8 µM), band C (8 µM or more)

Which band does Cc1cc(C#N)cnc1[C@H](C)NC(=O)Cc1c(O)c2c(C)c(F)ccc2[nH]c1=O [compound 1121] fall in?
band C

Which bin, given its Ventricular EC25, does C[C@@H](NC(=O)Cc1c(C2CC2)c2cc(F)ccc2[nH]c1=O)c1ncc(C#N)cc1F [compound 39] occupy?
band C

Kindly identify the class of Cc1c(CC(=O)N[C@@H]2COc3cc(C#N)cnc32)c(=O)[nH]c2ccc(F)cc12 [compound 1062] .
band B

Which category does the recorded Ventricular EC25 put Cc1c(CC(=O)N[C@@H](C)c2ncc(F)cc2F)c(=O)[nH]c2ccc(F)c(C(F)(F)F)c12 [compound 10] in?
band A

Any idea which band C[C@@H](NC(=O)Cc1c(C2CC2)c2cc(F)ccc2[nH]c1=O)c1ccc(C#N)cc1F [compound 73] is in?
band C

Continuing:
Dear colleague, I would appreciate it if you could identify the bin for Cc1cc(C#N)ncc1[C@@H](C)NC(=O)Cc1c(C)c2c(C)c(F)ccc2[nH]c1=O [compound 1044] and reply at your convenience.
band A

Note: place this compound into its band. Item: Cc1c(CC(=O)N[C@H](C)c2ncc(F)cc2F)c(=O)[nH]c2ccc(F)c(C(F)(F)F)c12 [compound 9]
band B

Place this compound in its band: C[C@@H](NC(=O)Cc1cc2cc(F)ccc2[nH]c1=O)c1ncc(C#N)cn1 (single isomer, unassigned) [compound 2029]
band C

Bin this entry: Cc1nc(C#N)cnc1[C@H](C)NC(=O)C(F)(F)c1c(C)c2cc(F)ccc2[nH]c1=O (single isomer, unassigned) [compound 2568]
band A

###

List of Atrial EC25 values.
Tested on: Porcine atria myofibrils (atrial myosin ATPase)
Assay: Myofibril ATPase assay, porcine atria myofibrils
Assay type: biochemical
Settings: porcine atria myofibrils; Y75 value (75% activity relative to no compound)
Write the value in µM as a bare number.

Record excerpt, results attached:
Quick check: Atrial EC25 of Cc1nccc2[nH]c(=O)c(CC(=O)N[C@@H]3CCc4cc(C#N)cnc43)c(C)c12 (single isomer, unassigned) ?
100.00

# Atrial EC25 lookup, item Cc1nccc2[nH]c(=O)c(CC(=O)N[C@H](C)c3ncc(C#N)cn3)c(C)c12
28.27

Would you mind telling me what Atrial EC25 value was observed for Cc1nccc2[nH]c(=O)c(CC(=O)N[C@@H](C)c3cccc(O)n3)c(C)c12 (single isomer, unassigned) ?
100.00

Item Cc1c(CC(=O)N[C@@H](C)c2ccc(F)cc2F)c(=O)[nH]c2ccc(OCC(F)(F)F)nc12 has what recorded Atrial EC25?
1.55

For the molecule Cc1nccc2[nH]c(=O)c([C@H](C)C(=O)N[C@@H](C)c3ccc(F)cc3F)c(C)c12 (single isomer, unassigned) , what Atrial EC25 is on record?
2.73

Further cases:
Find the recorded Atrial EC25 belonging to Cc1c(CC(=O)N[C@@H](C)c2ncc(F)cc2F)c(=O)[nH]c2ccnc(C#N)c12 (single isomer, unassigned) and report it.
0.07

Atrial EC25 for Cc1nccc2[nH]c(=O)c(CC(=O)N[C@H](C)c3ccccn3)c(C)c12 (single isomer, unassigned) ?
100.00

Look at this molecule and give its reported Atrial EC25. CCOc1nccc2[nH]c(=O)c([C@@H](C)C(=O)N[C@@H](C)c3ccc(F)cc3F)c(C(F)(F)F)c12 (single isomer, unassigned)
100.00

Which Atrial EC25 value is on record for Cc1c(CC(=O)N[C@H](C)c2ccc(F)cc2F)c(=O)[nH]c2ccnc(C(F)(F)F)c12 ?
100.00

Which Atrial EC25 value belongs to Cc1nccc2[nH]c(=O)c([C@@H](C)C(=O)N[C@@H](C)c3ccc(F)cc3F)c(C)c12 (single isomer, unassigned) ?
0.91

Need Atrial EC25, item Cc1c(CC(=O)N[C@@H](C)c2ccc(F)cc2F)c(=O)[nH]c2ccnc(OC3CC3)c12
0.12

Request the reported Atrial EC25 associated with Cc1c(CC(=O)N[C@@H](C)c2ccc(F)cc2F)c(=O)[nH]c2ccnc(N3CCCC3)c12
100.00

###

System: Porcine atria myofibrils (atrial myosin ATPase)
Assay: Myofibril ATPase assay, porcine atria myofibrils
Format: biochemical
Details: Y75 value (no ‡ mark); porcine atria myofibrils
Label yes when Atrial EC25 < 1000 nM; otherwise no.

Some entries whose results are on file:
Threshold test, Atrial EC25 < 1000 nM: Cc1c(CC(=O)N[C@H](C)c2ccc(C#N)cn2)c(=O)[nH]c2cc(F)ccc12
no

Report whether reported Atrial EC25 is lower than 1000 nM (strictly) for Cc1c(CC(=O)N[C@@H](C)c2ccc(F)cc2F)c(=O)[nH]c2ccc(Br)cc12
yes

In the record for C[C@H](NC(=O)Cc1cc2cc(C3CC3)ccc2[nH]c1=O)c1ccc(F)cc1F , is Atrial EC25 less than 1000 nM?
no

Please check: Atrial EC25 for Cc1c(CC(=O)N[C@@H](C)c2ncc(C#N)cn2)c(=O)[nH]c2cccc(F)c12 (single isomer, unassigned) , strictly under 1000 nM or not?
yes

Dear reviewer, please state whether C[C@@H](NC(=O)C1(c2cc3c(F)c(F)ccc3[nH]c2=O)CC1)c1ccc(F)cc1F has Atrial EC25 strictly beneath 1000 nM.
yes

Below 1000 nM on Atrial EC25? Entry C[C@H](NC(=O)C1(c2cc3cc(F)ccc3[nH]c2=O)CC1)c1nccc(C#N)n1 (single isomer, unassigned)
no

# TODO verify Atrial EC25 < 1000 nM strictly for this compound: Cc1c(CC(=O)N[C@@H](C)c2ncc(C#N)cn2)c(=O)[nH]c2ccc(C#N)cc12 (single isomer, unassigned)
no

Criterion: Atrial EC25 strictly below 1000 nM. Is it met by C[C@@H](NC(=O)C(F)(F)c1cc2c(F)c(F)ccc2[nH]c1=O)c1cccc(C#N)n1 (single isomer, unassigned) ?
no

Further cases:
Hi there! Is Atrial EC25 for N#Cc1cnc2c(c1)COC[C@@H]2NC(=O)Cc1cc2cc(F)c(F)cc2[nH]c1=O below 1000 nM, do you know?
no

# check: Atrial EC25 < 1000 nM for Cc1nc(C#N)cnc1[C@H](C)NC(=O)C(F)(F)c1c(C)c2cc(F)ccc2[nH]c1=O (single isomer, unassigned)
yes

Is Atrial EC25 of Cc1cc([C@@H](C)NC(=O)Cc2c(C)c3cc(F)ccc3[nH]c2=O)ncc1F strictly below 1000 nM?
no

Dear reviewer, please state whether C[C@H](NC(=O)Cc1cc2c(F)c(F)ccc2[nH]c1=O)c1ncc(C#N)cn1 (single isomer, unassigned) has Atrial EC25 strictly beneath 1000 nM.
yes

Report whether reported Atrial EC25 is lower than 1000 nM (strictly) for Cc1nc(C#N)cnc1[C@@H](C)NC(=O)Cc1cc2cc(F)c(F)cc2[nH]c1=O (single isomer, unassigned)
no

Problem: For the compound Cc1nc(C#N)cnc1[C@@H](C)NC(=O)Cc1c(C)c2cc(F)ccc2[nH]c1=O , is Atrial EC25 under 1000 nM?
yes

Please determine if Cc1c(C(F)(F)C(=O)N[C@@H](C)c2ccc(F)cc2F)c(=O)[nH]c2ccc(F)cc12 is below 1000 nM in terms of Atrial EC25.
yes

In plain terms, does Cc1c(CC(=O)N[C@H](CO)c2ccc(F)cc2F)c(=O)[nH]c2cccc(C#N)c12 (single isomer, unassigned) come in under 1000 nM for Atrial EC25?
yes

State whether 1000 nM exceeds Atrial EC25 recorded for Cc1c(CC(=O)N[C@H](C)c2ncc(C#N)cn2)c(=O)[nH]c2ccc(C#N)cc12 (single isomer, unassigned) .
no

Hi there! Is Atrial EC25 for Cc1c(CC(=O)N[C@@H](C)c2ncc(C#N)cc2F)c(=O)[nH]c2ccc(Cl)cc12 (single isomer, unassigned) below 1000 nM, do you know?
yes
